Test system: c-Src
Assay: phosphorylation enrichment, bacterial display (enrichment ratio); higher = better substrate or ligand; peptides without Tyr show the background
Outcome label depends on phosphorylation enrichment relative to 0.5: at/above gives satisfied, below gives not satisfied.

Past entries and their recorded results:
>  <Input sequence>
ADRLEYSRTGL [MMUT_Y287_G284R]

>  <Class name>
not satisfied

$$$$
>  <Input sequence>
DAGTDYVGISC [FREM2_Y2061_R2066C]

>  <Class name>
satisfied

$$$$
>  <Input sequence>
HSGIFYKPESL [L2HGDH_Y103_YF]

>  <Class name>
satisfied

$$$$
>  <Input sequence>
LEIETYRRLRD [KRT12_Y429_L433R]

>  <Class name>
satisfied

$$$$
>  <Input sequence>
NVTRKYSRQIL [MAP3K2_Y463_T464S]

>  <Class name>
not satisfied

$$$$

Task: Could you please find out whether NHYKIYNLYAE [PTEN_Y68_C71Y] has phosphorylation enrichment that meets 0.5 or exceeds it?
Result: satisfied

Task: Could you please find out whether FDDIACIRKTL [PIK3CA_Y1021_Y1021C] has phosphorylation enrichment that meets 0.5 or exceeds it?
Result: not satisfied

Task: Could you please find out whether NTDETYSIDNE [TUBB2B_Y200_C201S] has phosphorylation enrichment that meets 0.5 or exceeds it?
Result: satisfied

Task: Could you please find out whether IHSGIYYKPES [L2HGDH_Y102] has phosphorylation enrichment that meets 0.5 or exceeds it?
Result: satisfied

Task: Could you please find out whether DRLASYPDKVR [KRT14_Y129_L130P] has phosphorylation enrichment that meets 0.5 or exceeds it?
Result: not satisfied

Task: Could you please find out whether VEDQYYCVDCY [FHL1_Y208] has phosphorylation enrichment that meets 0.5 or exceeds it?
Result: satisfied

Task: Could you please find out whether GLAELYEYQKK [CKAP5_Y1854_K1857Q] has phosphorylation enrichment that meets 0.5 or exceeds it?
Result: satisfied

Task: Could you please find out whether CPFNLYAAQLS [HGD_Y40_E42A_YF] has phosphorylation enrichment that meets 0.5 or exceeds it?
Result: satisfied

###

Target: SHP2-C SH2;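 note: peptide library displayed on the E. coli surface as eCPX fusions, selected cells deep-sequenced, score is each peptide's frequency after selection divided by its frequency in the input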
Assay: SH2 binding enrichment of the phosphorylated peptide, bacterial display (enrichment ratio); higher = better substrate or ligand; peptides without Tyr show the background
Outcome label depends on SH2 binding enrichment relative to 0.8: at/above gives 1.0, below gives 0.0.

Past entries and their recorded results:
>  <Input sequence>
ATVLNYLPKCI [A2M_Y817]

>  <Class name>
0.0

$$$$
>  <Input sequence>
FHRQLYHKCTH [F12_Y58_YF]

>  <Class name>
1.0

$$$$
>  <Input sequence>
DEDEEYEYMNR [ERBB3_Y1197]

>  <Class name>
1.0

$$$$
>  <Input sequence>
SGIFQYNIAKF [FOXL2_Y83_I84N_YF]

>  <Class name>
1.0

$$$$
>  <Input sequence>
HFGCVYYGTLL [MET_Y1093_H1094Y]

>  <Class name>
0.0

$$$$
>  <Input sequence>
VNTTLYEKFTY [TEK_Y1108]

>  <Class name>
1.0

$$$$

From here, focus on the item given below.
Task: Could you please find out whether EQFELYCEMGS [CBL_Y371_YF] has SH2 binding enrichment that meets 0.8 or exceeds it?
Result: 0.0

###

Target: FGFR3 (UniProt P22607)
Sequence (P22607 whole entry, looked up): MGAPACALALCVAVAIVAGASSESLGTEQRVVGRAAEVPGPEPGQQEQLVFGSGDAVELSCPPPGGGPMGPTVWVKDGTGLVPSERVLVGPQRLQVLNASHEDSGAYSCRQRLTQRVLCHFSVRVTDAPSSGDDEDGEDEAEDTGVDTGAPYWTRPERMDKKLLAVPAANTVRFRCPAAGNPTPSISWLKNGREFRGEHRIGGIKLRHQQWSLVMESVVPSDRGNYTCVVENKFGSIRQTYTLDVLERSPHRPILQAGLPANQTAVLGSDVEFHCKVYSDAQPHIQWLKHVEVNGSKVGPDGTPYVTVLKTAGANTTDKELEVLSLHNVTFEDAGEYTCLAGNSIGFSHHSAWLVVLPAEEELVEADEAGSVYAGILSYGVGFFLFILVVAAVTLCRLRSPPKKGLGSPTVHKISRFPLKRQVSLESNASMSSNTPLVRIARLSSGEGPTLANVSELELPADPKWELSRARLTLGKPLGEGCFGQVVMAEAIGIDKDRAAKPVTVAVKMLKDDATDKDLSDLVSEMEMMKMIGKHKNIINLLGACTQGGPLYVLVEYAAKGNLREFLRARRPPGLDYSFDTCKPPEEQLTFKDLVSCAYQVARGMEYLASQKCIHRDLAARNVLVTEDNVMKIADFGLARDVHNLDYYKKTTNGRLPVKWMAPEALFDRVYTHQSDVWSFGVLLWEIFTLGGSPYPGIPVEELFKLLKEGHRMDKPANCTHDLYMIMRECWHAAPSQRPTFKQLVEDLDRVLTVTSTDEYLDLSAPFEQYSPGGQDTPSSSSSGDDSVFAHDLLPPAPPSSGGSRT
Assay: phosphorylation enrichment, bacterial display (enrichment ratio); higher = better substrate or ligand; peptides without Tyr show the background
Outcome label depends on phosphorylation enrichment relative to 0.7: at/above gives 1, below gives 0.

Past entries and their recorded results:
>  <Input sequence>
WPLKWYVPECI [ZAP70_Y506_A507V]

>  <Class name>
1

$$$$
>  <Input sequence>
LKGQVYILVRE [ASS1_Y359_G362V]

>  <Class name>
1

$$$$
>  <Input sequence>
SVIKEYQIRQV [USH2A_Y3623_G3618S]

>  <Class name>
0

$$$$
>  <Input sequence>
AADGRYEVLFL [SEMA3F_Y478]

>  <Class name>
1

$$$$
>  <Input sequence>
MANFMYKAGPS [MAML2_Y515_YF]

>  <Class name>
0

$$$$

Task: Could you please find out whether GKSHIYFWTLE [EML2_Y230] has phosphorylation enrichment that meets 0.7 or exceeds it?
Result: 1

Task: Could you please find out whether FQRLRYIKQLG [SAMHD1_Y146] has phosphorylation enrichment that meets 0.7 or exceeds it?
Result: 0

Recorded values, source the supplement of paper PMC10065799.
